testDescription: Example 1: pharmacokinetics of Compound I, single (SD) and multiple (MD, q8h 7 days) ascending doses, 3-hour IV infusion, healthy adult subjects
Assay type: in vivo, human
conditionInfo: human, plasma, intravenous, 1500 mg, 1500 mg single dose; read-out: T1/2 (converted)
reportedMetric: half-life (h)
Please state the figure in h; there is no need to write the unit.

Task item: Give its half-life value. Item: O=C(O)C[C@@H]1CC[C@H](NC(=O)Cc2cccs2)B(O)O1 [Compound I]
Reply: 1.4

###

testDescription: Example 6: noncompartmental plasma pharmacokinetics after third dose of the Combination (2 g meropenem/2 g Compound I q8h)
conditionInfo: both, human, plasma, intravenous, CL, meropenem 2 g q8h, 6-hour BAL Sampling Group
reportedMetric: clearance

Task item: Entry under review: `C[C@@H](O)[C@H]1C(=O)N2C(C(=O)O)=C(S[C@@H]3CN[C@H](C(=O)N(C)C)C3)[C@H](C)[C@H]12` . Reported clearance?
Reply: 173 mL/min

The measured values listed here are drawn from patent US20190105337A1.
